In this section, each of the molecules is paired with its reported inhibition at 10 µM.
# Target system: Recombinant human LTC4 synthase (Homo sapiens, UniProt Q16873)
# Construct: made in house; host or cells: Pichia pastoris ('Piccia pastoralis' [sic])
# Sequence (Q16873 whole entry): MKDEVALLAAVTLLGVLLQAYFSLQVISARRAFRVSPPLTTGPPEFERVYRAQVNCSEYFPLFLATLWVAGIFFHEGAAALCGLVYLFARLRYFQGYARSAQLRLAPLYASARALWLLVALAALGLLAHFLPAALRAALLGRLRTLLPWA
# Experiment description: LTC4 synthase assay (conversion of LTA4 methyl ester to LTC4 methyl ester, HPLC)
# Assay type: biochemical
# Measurement parameters: inhibitor concentration 10 μM; read-out: Percantage Inhibition at 10 μM (unless specified otherwise)
Give just the number in %; leave the unit off.

Would you kindly share the measured inhibition at 10 µM for O=C(Nc1ccc(C(=O)c2ccc(NS(=O)(=O)c3ccc(Cl)cc3)cc2)cc1C(=O)O)c1cccc(Cl)c1 [7:11] ?
98

Recorded inhibition at 10 µM for O=C(c1ccc(NC(=O)c2cc(Cl)cnc2Cl)cc1)c1ccc(Nc2ccc(F)c(F)c2)c(C(=O)O)c1 [5:12] , please?
98

Entry O=C(CC1CCCC1)Nc1ccc(C(=O)c2ccc(NC(=O)c3ccc(Cl)cc3Cl)c(C(=O)O)c2)cc1 [14:1] has what inhibition at 10 µM?
93
